Origin of the recorded values: PubChem BioAssay (NCATS)

target: Retinaldehyde dehydrogenase 3 (Homo sapiens); experiment: qHTS for Inhibitors of the Aldehyde Dehydrogenase Family (ALDH1A3) Confirmatory screens (AID 2061311); details: ALDH inhibition qHTS; series mostly up to 46 µM; note: nearly all actives have a fitted effect of over 60% in size; note: potency is the fitted concentration of half-maximal effect
Inconclusive results are not listed. Calls of active or inactive are those of the source. Calls come from the whole dose curve; as a rule, active = well fitted inhibition curve with a large enough effect; inconclusive = small, poorly fitted or top-dose-only effect; inactive = no such curve, though single readings can be large or run the other way.
valueKind: Potency

Some molecules with known Potency results, for comparison:
                                   molecule             result
0    O=C1CCc2cc(OCCCCc3nnnn3C3CCCCC3)ccc2N1  0.631 µM (active)
1  CCn1cc2nc(SCc3cccc(C)c3)n(CCc3ccccc3)c(=O)c2n1   1.26 µM (active)
2                   CC1=NN(c2ccccc2)C(=O)C1   8.91 µM (active)
3  O=C(NCCN1CCCC1)[C@H](Cc1ccc(OS(=O)(=O)c2cccc3cnccc23)cc1)NS(=O)(=O)c1cccc2cnccc12           inactive
4  Cc1noc(C)c1-c1ccc2ncnc(NCc3ccc(F)cc3)c2c1   12.6 µM (active)

Reported Potency, molecule O=C1NS(=O)(=O)c2cc3c(cc21)C(=O)NS3(=O)=O : ____
inactive

Reported Potency, molecule CCCN(CCN1CCN(c2ccccc2OC)CC1)C1CCc2ncsc2C1 (configuration not stated) : ____
inactive

====

assay: BET inhibitor-based combinations targeting novel dependencies in MECOM-rearranged (r) AML: UCSD-AML1 cell line (AID 2202235); settings: UCSD-AML1 AML cells viability, CellTiter-Glo, 48 h; series mostly up to 46 µM; note: nearly all actives have a fitted effect of over 40% in size; note: potency is the fitted concentration of half-maximal effect
Inconclusive results are not listed. Active and inactive are the calls of the source. The call rests on the fitted dose curve; in most records, active means well fitted inhibition curve with a large enough effect; inconclusive means small, poorly fitted or top-dose-only effect; inactive means no such curve, though single readings can be large or run the other way.
valueKind: Potency

Some molecules with known Potency results, for comparison:
                                   molecule             result
0  CN(C)N(C)C(=O)[C@@]1(Cc2ccccc2)CCCN(C(=O)[C@@H](Cc2c[nH]c3ccccc23)NC(=O)C(C)(C)N)C1           inactive
1  CN(CC(=O)N(Cc1ccc(C2CCCCC2)cc1)c1ccc(C(=O)O)c(O)c1)S(=O)(=O)c1c(F)c(F)c(F)c(F)c1F           inactive
2  Cc1nc(N)sc1-c1ccnc(Nc2ccc(N3CCOCC3)cc2)n1  0.833 µM (active)
3  O=Nc1c(-c2c(O)[nH]c3cc(Br)ccc23)[nH]c2ccccc12   13.2 µM (active)
4  CCC[C@H](N[C@@H](C)C(=O)N1[C@@H]2CCCC[C@H]2C[C@H]1C(=O)O)C(=O)OCC           inactive

Here is another molecule to look at.
Reported Potency, molecule Nc1ncnc2c1C(=O)N(c1ccc(C3CCC(CC(=O)O)CC3)cc1)CCO2 (stereo not given) : ____
inactive

====

Provide the recorded activation for the entries that follow.
target: Cellular tumor antigen p53 (Homo sapiens); experiment: Primary qHTS for small molecule compounds that upregulate eGFP-tagged delta133p53alpha (in N-terminal) cells. (AID 2060322); settings: NCI-H358 eGFP-delta133p53alpha fluorescence, 24 h; stronger effect = higher value;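 note: cells pre-induced with doxycycline then dosed without doxycycline; 0% = DMSO vehicle and 100% = reference activator; nearly all actives have a fitted effect of over 75% in size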
Records with an inconclusive call do not appear.
Give your result in % as a bare value.

Reported activation, molecule Cn1cc(-c2cnn3c(N)c(Br)c([C@@H]4CCCNC4)nc23)cn1 : ____
3.82

Reported activation, molecule C[C@@H]1CC[C@]2(C(=O)O)CC[C@]3(C)C(=CCC4[C@@]5(C)CC[C@H](O)C(C)(C)C5C(O)C[C@]43C)[C@@H]2[C@]1(C)O (some centres undefined) : ____
0.893

Reported activation, molecule CCn1c(=O)[nH]c2cc(Cl)c(Cl)cc21 : ____
-55.4

Reported activation, molecule O=P(O)(O)OCC(O)CO (centres undefined) : ____
-9.21

Reported activation, molecule CCCCCCOc1ccccc1C(N)=O : ____
8.47

Reported activation, molecule Nc1nc(-c2nn(Cc3ccccc3F)c3ncccc23)nc(N)c1N1CCOCC1 : ____
6.49

Reported activation, molecule Cc1c(C(N)=O)cc([N+](=O)[O-])cc1[N+](=O)[O-] : ____
-8.37

Reported activation, molecule O=C(Cn1ccnc1[N+](=O)[O-])NCCO : ____
-9.21

Reported activation, molecule O=C(O)c1ccc(O)c2ncc(N3CCOCC3)cc12 : ____
22.8

Reported activation, molecule CCN(c1cc(-c2ccc(CN3CCOCC3)cc2)cc(C(=O)NCc2c(C)cc(C)[nH]c2=O)c1C)C1CCOCC1 : ____
-17.7

Reported activation, molecule Cc1cc([C@@H](C)Nc2ccccc2C(=O)O)c2nc(N3CCOCC3)cc(=O)n2c1 : ____
14.9

Reported activation, molecule COc1ccc2c(c1)c(CC(=O)O)c(C)n2C(=O)c1ccccc1 : ____
-16.8

Reported activation, molecule C[C@@H]1C[C@H](C)CN(CCC(=O)Nc2ccc(Br)cc2)C1 : ____
13.4

Reported activation, molecule COC(=O)C1=CO[C@@H](O[C@@H]2O[C@H](CO)[C@@H](O)[C@H](O)[C@H]2O)[C@@H]2C(CO)=CC[C@H]12 : ____
0

Reported activation, molecule CCN(CC)CCNC(=O)c1cc(Br)c(N)cc1OC : ____
13

Reported activation, molecule O=c1cc(-c2ccccc2)oc2cc(O)cc(O)c12 : ____
3.3

Reported activation, molecule O=C(O)Cc1cn(C2OCC(O)C(O)C2O[C@@H]2O[C@H](CO)[C@@H](O)[C@H](O)[C@H]2O)c2ccccc12 (some centres undefined) : ____
3.82

Reported activation, molecule CC1CCC2C(C)(C)[C@@H](O)CC[C@]2(C)C12Cc1c(O)cc3c(c1O2)CN(C(CCC(=O)O)C(=O)O)C3=O (some centres undefined) : ____
23.2

Reported activation, molecule C=CC(C)(O)CC/C=C(\C)C(=O)OC1CC2(C(=O)O)CCC3(C)C(=CCC4C5(C)CCC(OC6OC(COC7OCC(O)C(O)C7O)C(O)C(OC7OCC(O)C(O)C7O)C6OC6OC(CO)C(O)C(O)C6OC6OCC(O)C(O)C6O)C(C)(C)C5CCC43C)C2CC1(C)C (centres undefined) : ____
-7.14

====

target: Cellular tumor antigen p53 (Homo sapiens); assay: Primary qHTS for small molecule compounds that upregulate eGFP-tagged delta133p53alpha (in N-terminal) cells. (AID 2060322); conditions: NCI-H358 eGFP-delta133p53alpha fluorescence, 24 h; stronger effect = higher value;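 note: cells pre-induced with doxycycline then dosed without doxycycline; 0% = DMSO vehicle and 100% = reference activator; nearly all actives have a fitted effect of over 75% in size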
Results filed as inconclusive are left out.
valueKind: activation (%)
Give your result in % as a bare value.

Reported activation, compound COc1cc(C=O)ccc1O : ____
5.02

Reported activation, compound CNc1nccc(-c2cccnc2Oc2cc(C(=O)Nc3cccc(C(F)(F)F)c3)ccc2C)n1 : ____
-0.576

Reported activation, compound CN1C(C(=O)Nc2ccccn2)=C(O)c2sc(Cl)cc2S1(=O)=O : ____
-22.9

Reported activation, compound CN1C2CCC1CC(OC(c1ccccc1)c1ccccc1)C2 (centres undefined) : ____
-19.6

Reported activation, compound O=C(O)c1cn(-c2ccc(F)cc2)c2cc(N3CCNCC3)c(F)cc2c1=O : ____
-9.7

Reported activation, compound CCC(C)/C=C(C)/C=C/C(=O)C1CCC(O)C(C)(O)C1=O (centres undefined) : ____
14.5

Reported activation, compound Cc1noc(C)c1-c1cc(O)cc(C(O)c2ccccc2)c1 (centres undefined) : ____
10.1

Reported activation, compound CC1(C)O[C@@]2(C)CC[C@@H]1C[C@@H]2OC1OC(CO)C(O)C(O)C1O (some centres undefined) : ____
-6.11

Reported activation, compound CC1CCCCN1CCCOC(=O)c1ccc(OC2CCCCC2)cc1 (centres undefined) : ____
-7.53

====

Assay: BET inhibitor-based combinations targeting novel dependencies in MECOM-rearranged (r) AML: MV-4-11 cell line (AID 2202233); note: nearly all actives have a fitted effect of over 45% in size
Conditions: MV-4-11 AML viability, CellTiter-Glo luminescence, 48 h; series mostly up to 46 µM
Procedure: Ecotropic viral insertion site 1 (EVI1) is located on chromosome 3q26.2 as part of the MECOM (MDS and EVI1 complex) locus. […] A collection of 2480 mechanistically annotated dugs (MIPE v5.0) was used to screen four 3q26.2 rearranged AML cell lines and three non-3q26.2 rearranged AML cell lines. […] Cell viability was determined by luminescence based, Cell Titer Glo assay (Promega). […] Luminescence readings were taken using a Viewlux (PerkinElmer) with a 2 s exposure time per plate. […]
Records with an inconclusive call do not appear. The source made the active and inactive calls. Calls follow the shape of the dose curve; as a rule, active = well fitted inhibition curve with a large enough effect; inconclusive = small, poorly fitted or top-dose-only effect; inactive = no such curve, though single readings can be large or run the other way.
Hello, when you answer, please use one of the following outcomes: active, inactive

Per the records of this test, what outcome belongs to Cc1cc(Nc2cc(N3CCN(C)CC3)nc(/C=C/c3ccccc3)n2)n[nH]1 ?
active

Per the records of this test, what outcome belongs to CN(C)Cc1c(C(=O)NCCOc2ccc(C(=O)NO)cc2)oc2ccccc12 ?
active

Per the records of this test, what outcome belongs to Cc1ccc(O)c(C(CCN(C(C)C)C(C)C)c2ccccc2)c1 (configuration not stated) ?
inactive

Per the records of this test, what outcome belongs to CCCc1nc2c(C)cc(-c3nc4ccccc4n3C)cc2n1Cc1ccc(-c2ccccc2C(=O)O)cc1 ?
inactive

Per the records of this test, what outcome belongs to O=C(O)C[C@H](O)C[C@H](O)/C=C/c1c(C2CC2)nc2ccccc2c1-c1ccc(F)cc1 ?
active

Per the records of this test, what outcome belongs to COc1cc2nccc(Oc3ccc(NC(=O)NC4CC4)c(Cl)c3)c2cc1C(N)=O ?
active

Per the records of this test, what outcome belongs to Cn1ncnc1[C@H]1c2n[nH]c(=O)c3cc(F)cc(c23)N[C@@H]1c1ccc(F)cc1 ?
active

Per the records of this test, what outcome belongs to CCCCCOC(=O)Nc1nc(=O)n([C@@H]2O[C@H](C)[C@@H](O)[C@H]2O)cc1F ?
inactive

Per the records of this test, what outcome belongs to CC(C)C[C@H](CC(=O)O)C(=O)N[C@@H](Cc1c[nH]c2ccccc12)C(=O)N[C@@H](C)c1ccccc1 ?
inactive

Per the records of this test, what outcome belongs to O=[N+]([O-])c1ccc(Nc2ccccc2-c2ccccc2)c2nonc12 ?
active

Per the records of this test, what outcome belongs to Nc1ccn([C@@H]2CS[C@H](CO)O2)c(=O)n1 ?
inactive

Per the records of this test, what outcome belongs to NC(=O)c1noc([C@H](CCCC2CCCCC2)CC(=O)NO)n1 ?
active
